For each entry below, report its z-score value.
experiment.summary: basal RPMI8226 viability, no added stimulus, profiling panel, cell-based, calcein-AM fluorescence, 48 h, PK04 Diversity Set (AID 1166);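 note: cells grown under basal conditions without added stimulus; test concentration not given here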
condition.set: RPMI8226 myeloma viability, higher = more signal
Give bare numbers.

{"compound": "COC(=O)[C@H](C)NC(=O)CCC1CC(OC(=O)NCCc2ccc(F)cc2)CC2(CCCC(COC(=O)NCC(c3ccccc3)c3ccccc3)O2)O1 (stereo partly drawn)", "z-score": -3.43}
{"compound": "CO[C@H]1COC(=O)[C@@H]2CCCN2C(=O)[C@@H](C)COC(=O)CC=C[C@@H]1C", "z-score": 0.358}
{"compound": "COC(=O)[C@@H]1CCCN1C(=O)[C@@H](C)CO", "z-score": -0.57}
{"compound": "COCCCNC(=O)[C@@]1(CCS(=O)(=O)c2ccccc2)N=C(c2ccc(OCCCO)cc2)O[C@H]1c1ccccc1", "z-score": -0.193}
{"compound": "COC(=O)c1c(CC[C@@H](CO)NC(=O)N[C@H](Cc2ccccc2)Cn2cc(-c3ccccc3N)nn2)oc(C(C)=O)c1C(=O)OC", "z-score": 0.229}

For every record below, what is its z-score?
1. COC(=O)[C@H](C)NC(=O)[C@@H](C)CO
2. N#Cc1ccc(NN2C(C(O)c3cccc4ccccc34)C=CC3C(=O)N(c4ccccc4)C(=O)C32)cc1 (stereo not drawn)
3. CC(C)(C)OC(=O)CC[C@]1(C(=O)NCc2ccccc2)N=C(c2ccc(OCCCO)cc2)O[C@H]1c1ccccc1

1: -1.21; 2: 0.224; 3: -1.14

----------
experiment.summary: Plasmodium falciparum growth inhibition, primary screen, strain 3D7, DAPI fluorescence, 100 nL (AID 1184);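 note: parasites grown inside human red blood cells in medium with human serum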
condition.set: P. falciparum 3D7 growth, 3 d, higher = more signal
attribute.measured: z-score
Give bare numbers.

Here's what some known entries look like.
{"compound": "COc1ccccc1CN1C(=O)c2ccccc2[C@@H](C(=O)NCC(F)(F)F)[C@@H]1c1ccc(CO)cc1", "z-score": -1.19}
{"compound": "CCOC(=O)NN=C1C[C@@H](O)[C@@H](O)[C@@H]2[C@@H]3C(=O)N(C(C)(C)C)C(=O)[C@@H]3CC[C@@H]12", "z-score": 0.439}
{"compound": "O=C1O[C@@H](c2ccccc2)[C@@H](c2ccccc2)N2[C@@H](c3ccccc3OCCO)[C@]3(C(=O)Nc4ccc(C#CCCO)cc43)[C@@H](C(=O)O)[C@H]12", "z-score": -1.69}
{"compound": "CC(=O)OC[C@H]1O[C@H](C#CCCCc2ccccc2)C=C[C@@H]1OC(C)=O", "z-score": -0.107}
{"compound": "CCOC(=O)[C@H](Cc1ccccc1)NC(=O)CCC1CC(OC(=O)NCc2ccc3c(c2)OCO3)CC2(CCCC(COC(=O)NCC(c3ccccc3)c3ccccc3)O2)O1 (some centres not stated)", "z-score": -0.909}

Working through the 2 compounds below one at a time, give z-score for each.
1. CCOC(=O)C[C@H]1[C@H](OC(=O)c2cc3ccccc3oc2=O)[C@@H](NC(=O)c2ccc3ccccc3n2)c2cc(OCCCO)ccc2N1C(=O)c1ccccc1
2. Cc1ccc(S[C@]2(C(=O)O)CC(=O)N(Cc3ccccc3)[C@@H]2c2ccc(CO)cc2I)cc1

1: -2.07; 2: -0.58

Where do these numbers come from? They come from PubChem BioAssay.
